Field: pEC50. Provide a value for each of the molecules that follow.
Target: TGF-beta receptor type-1 (Homo sapiens, UniProt P36897)
Sequence (P36897 whole entry): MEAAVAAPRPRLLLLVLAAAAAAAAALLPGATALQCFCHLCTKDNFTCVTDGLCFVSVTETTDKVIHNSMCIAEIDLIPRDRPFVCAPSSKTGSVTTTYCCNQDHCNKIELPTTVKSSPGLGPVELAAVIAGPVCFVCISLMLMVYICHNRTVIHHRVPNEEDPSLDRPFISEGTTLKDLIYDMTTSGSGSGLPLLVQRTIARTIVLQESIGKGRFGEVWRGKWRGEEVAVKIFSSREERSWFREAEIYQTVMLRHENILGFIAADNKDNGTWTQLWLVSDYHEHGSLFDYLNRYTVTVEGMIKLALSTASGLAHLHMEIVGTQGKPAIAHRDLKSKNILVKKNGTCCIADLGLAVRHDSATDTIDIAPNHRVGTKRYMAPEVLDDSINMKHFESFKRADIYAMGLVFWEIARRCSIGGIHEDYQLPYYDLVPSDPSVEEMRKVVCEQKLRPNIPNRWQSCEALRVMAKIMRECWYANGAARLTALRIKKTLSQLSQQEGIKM
Assay: Inhibition of TGFbeta receptor in human HaCaT cells assessed as Smad phosphorylation by ELISA
pEC50: −log10 of the molar value.

// returns reported pEC50 for input CCN(C)C(=O)c1ccc2c(c1)NC(=O)C2C(=NC1CCCCC1)c1ccccc1 (configuration not stated)
< 5.00

pEC50 for CCN(C)C(=O)c1ccc2c(c1)NC(=O)C2C(=NC1CCN(C)CC1)c1ccccc1 (configuration not stated) ?
< 5.00
